Target: T1, human prolactin receptor (PRLR) (human, UniProt P16471 25-622)
T1 sequence: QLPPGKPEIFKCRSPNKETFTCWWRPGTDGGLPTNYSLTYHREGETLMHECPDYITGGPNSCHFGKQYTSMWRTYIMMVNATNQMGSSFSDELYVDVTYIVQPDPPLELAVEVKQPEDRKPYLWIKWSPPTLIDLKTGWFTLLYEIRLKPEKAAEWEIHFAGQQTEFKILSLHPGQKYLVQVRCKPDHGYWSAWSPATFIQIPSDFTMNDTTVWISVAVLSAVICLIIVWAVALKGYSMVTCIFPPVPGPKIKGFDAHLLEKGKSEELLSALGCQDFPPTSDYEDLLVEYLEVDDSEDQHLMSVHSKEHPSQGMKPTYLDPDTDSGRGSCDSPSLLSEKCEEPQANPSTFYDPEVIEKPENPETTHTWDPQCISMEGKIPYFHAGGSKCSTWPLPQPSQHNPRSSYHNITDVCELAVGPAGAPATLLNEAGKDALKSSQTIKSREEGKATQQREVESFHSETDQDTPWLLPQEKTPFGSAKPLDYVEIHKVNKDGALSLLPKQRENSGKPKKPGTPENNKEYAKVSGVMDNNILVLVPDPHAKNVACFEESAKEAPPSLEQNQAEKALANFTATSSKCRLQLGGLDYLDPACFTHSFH
Test: cell-based or functional assay
property.measured: % Kill, MCF7 cells (%)
# unit: % | format: bare number

Record excerpt, results attached:
binder	unit.tag	% Kill, MCF7 cells
H1H6782P-DM1 (antibody, human IgG1, V domains shown, DM1 conjugated through SMCC linker; attachment residues not stated) VH: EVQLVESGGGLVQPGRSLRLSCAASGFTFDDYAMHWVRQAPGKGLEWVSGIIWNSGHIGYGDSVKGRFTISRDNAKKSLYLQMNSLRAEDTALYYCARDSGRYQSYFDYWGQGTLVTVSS VL: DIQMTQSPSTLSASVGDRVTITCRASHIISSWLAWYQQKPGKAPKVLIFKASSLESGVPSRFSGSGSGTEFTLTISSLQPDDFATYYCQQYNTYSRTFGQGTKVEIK	%	57
H1H6793P-DM1 (antibody, human IgG1, V domains shown, DM1 conjugated through SMCC linker; attachment residues not stated) VH: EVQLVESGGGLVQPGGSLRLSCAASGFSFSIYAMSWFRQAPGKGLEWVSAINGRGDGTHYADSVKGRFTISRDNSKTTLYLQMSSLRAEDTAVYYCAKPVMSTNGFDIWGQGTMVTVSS VL: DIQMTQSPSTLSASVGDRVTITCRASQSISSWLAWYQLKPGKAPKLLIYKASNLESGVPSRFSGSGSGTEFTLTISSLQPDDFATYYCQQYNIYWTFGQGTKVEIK	%	67

Query: Given the entry H1H6765P-DM1 (antibody, human IgG1, V domains shown, DM1 conjugated through SMCC linker; attachment residues not stated) VH: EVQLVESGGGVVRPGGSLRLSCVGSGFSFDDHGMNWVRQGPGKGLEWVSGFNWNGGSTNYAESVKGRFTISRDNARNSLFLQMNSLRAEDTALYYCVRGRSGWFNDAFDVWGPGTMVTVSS VL: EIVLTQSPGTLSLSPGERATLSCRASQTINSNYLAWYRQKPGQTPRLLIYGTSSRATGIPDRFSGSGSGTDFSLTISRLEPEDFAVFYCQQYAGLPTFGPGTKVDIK , report its measured % Kill, MCF7 cells.
Reply: 68
